Reference source for all entries: ChEMBL document CHEMBL1122623

Species on record: Mus musculus
Protocol Details: Antagonist activity in mouse vas deferens preparation.
Format: functional
Test Readout: pIC50
Friendly reminder that pIC50 comes from taking -log10 of the concentration in mol/L.

Some compounds with recorded pIC50:
Compound: O=C1C=CC2C3Cc4ccc(O)c5c4C2(CCN3CC2CC2)[C@H]1O5 (stereo partly drawn)
pIC50: 6.52
//
Compound: CN1CCC23c4c5ccc(O)c4O[C@H]2C(=O)C=CC3C1C5 (stereo partly drawn)
pIC50: 7.33

Query block: Tell me its pIC50 given CC(C)C[C@@H](NC(=O)[C@H](Cc1ccccc1)NC(=O)CNC(=O)[C@@H](C)NC(=O)[C@@H](N)Cc1ccc(O)cc1)C(=O)O as the entry.
Result block: 9.66
